Molecular target: dopamine D1 receptor (Rattus norvegicus, UniProt P18901)
Sequence (P18901 whole entry): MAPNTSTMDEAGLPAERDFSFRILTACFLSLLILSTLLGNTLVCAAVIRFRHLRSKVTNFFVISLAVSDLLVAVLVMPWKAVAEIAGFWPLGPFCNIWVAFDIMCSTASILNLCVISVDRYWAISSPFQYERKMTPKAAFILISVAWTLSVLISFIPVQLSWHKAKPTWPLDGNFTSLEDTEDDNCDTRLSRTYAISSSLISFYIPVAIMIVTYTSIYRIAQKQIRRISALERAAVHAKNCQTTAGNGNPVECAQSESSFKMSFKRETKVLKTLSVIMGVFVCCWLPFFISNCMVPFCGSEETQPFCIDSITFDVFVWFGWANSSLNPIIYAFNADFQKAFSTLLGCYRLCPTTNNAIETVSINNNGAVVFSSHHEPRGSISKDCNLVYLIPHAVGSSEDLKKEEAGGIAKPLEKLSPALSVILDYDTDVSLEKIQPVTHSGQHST
Experiment: In-vitro binding, dopamine D1 receptor
Conditions: dihydrochloride salt; read-out: binding affinity for dopamine D1 receptor (K1)
Quantity: pKi
When answering, recall that pKi equals minus log10 of the concentration in mol/L, and write that number alone.

May I ask what pKi has been recorded for Cl.Cl.c1ccc2c(c1)N=C(N1CCNCC1)c1ccccc1S2 [dihydrochloride salt] ?
5.83

* * *

Molecular target: Adrenergic α2* Non-Selective
Experiment: Radioligand binding 203900 Adrenergic α2 Non-Selective
Conditions: rat
Excerpt: Receptor binding methods, α-adrenergic nonselective, are provided below.
Quantity: pIC50
When answering, recall that pIC50 equals minus log10 of the concentration in mol/L, and write that number alone.

May I ask what pIC50 has been recorded for c1ccc2c(c1)N=C(N1CCNCC1)c1ccccc1S2 ?
5.85

* * *

Target: Uptake, Norepinephrine (Homo sapiens)
Sequence (P23975 whole entry): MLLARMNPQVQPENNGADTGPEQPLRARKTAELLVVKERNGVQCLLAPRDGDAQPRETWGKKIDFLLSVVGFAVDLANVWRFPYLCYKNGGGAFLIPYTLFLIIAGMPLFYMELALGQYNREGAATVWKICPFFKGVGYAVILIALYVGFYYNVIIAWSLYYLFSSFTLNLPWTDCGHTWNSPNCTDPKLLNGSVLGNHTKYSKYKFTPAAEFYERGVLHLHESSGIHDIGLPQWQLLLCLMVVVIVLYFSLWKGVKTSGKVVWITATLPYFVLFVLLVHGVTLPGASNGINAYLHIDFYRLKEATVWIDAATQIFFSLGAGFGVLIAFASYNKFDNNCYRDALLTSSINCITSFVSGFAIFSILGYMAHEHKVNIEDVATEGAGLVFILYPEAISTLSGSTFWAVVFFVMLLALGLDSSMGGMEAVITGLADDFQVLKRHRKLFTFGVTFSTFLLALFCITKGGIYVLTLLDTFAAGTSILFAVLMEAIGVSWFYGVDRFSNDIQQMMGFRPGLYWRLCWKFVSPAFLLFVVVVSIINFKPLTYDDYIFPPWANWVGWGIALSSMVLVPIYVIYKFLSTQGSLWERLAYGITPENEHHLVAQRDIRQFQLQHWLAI
Experiment: Functional assay measuring norepinephrine uptake
Conditions: [3H]Norepinephrine uptake, MDCK cells; read-out: EC50/IC50
Quantity: IC50 (nM)
Reply numerically in nM, unit not repeated.

May I ask what IC50 has been recorded for c1ccc2c(c1)N=C(N1CCNCC1)c1ccccc1S2 ?
13.4

* * *

Assay: Oral bioavailability in monkeys
Format: in vivo
Settings: cynomolgus monkey, plasma
Quantity: bioavailability (%)
Reply numerically in %, unit not repeated.

May I ask what bioavailability has been recorded for c1ccc2c(c1)N=C(N1CCNCC1)c1ccccc1S2 ?
37

* * *

Molecular target: Adrenergic α1* Non-Selective
Test: Radioligand binding 203500 Adrenergic α1 Non-Selective
Details: rat
Quantity: pKi
When answering, recall that pKi equals minus log10 of the concentration in mol/L, and write that number alone.

May I ask what pKi has been recorded for c1ccc2c(c1)N=C(N1CCNCC1)c1ccccc1S2 ?
7.43
